# System: MAP4K4
# TEST CONTEXT: Compound Concentration (nM):1000;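 further: KINOMEscan scanMAX binding as percent activity remaining versus control; lower means stronger binding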
Hi there, I'd appreciate the recorded Percent Control for every entry that follows.
Numbers only, in %.

molecule="C/C(Nc1ccc(S(N)(=O)=O)cc1)=C1/C(=O)Nc2ccccc21 [GW335962X]" test_system=MAP4K4 readout_kind="Percent Control" unit_label=% numeric_value=89
molecule="Cl.O=C(Nc1ccc(Oc2ccc3[nH]c(NC(=O)c4ccccc4)nc3c2)cc1)Nc1cc(C(F)(F)F)ccc1F [GW709042A]" test_system=MAP4K4 readout_kind="Percent Control" unit_label=% numeric_value=100
molecule="Cl.O=C(Nc1ccc(Oc2ccc3[nH]c(NC(=O)c4ccco4)nc3c2)cc1)Nc1cc(C(F)(F)F)ccc1F [GW683134A]" test_system=MAP4K4 readout_kind="Percent Control" unit_label=% numeric_value=95
molecule="C[C@@H](Oc1cc(-n2cnc3ccc(OC4CCN(C)CC4)cc32)sc1C(N)=O)c1ccccc1Cl [GSK579289A]" test_system=MAP4K4 readout_kind="Percent Control" unit_label=% numeric_value=49
molecule="COc1cc(C=NNc2ncnc3c2cnn3-c2ccccc2)ccc1O [GW513184X]" test_system=MAP4K4 readout_kind="Percent Control" unit_label=% numeric_value=66

# context switch: different molecule, same Percent Control
For reference, reported Percent Control for "CCn1c(-c2nonc2N)nc2c(C#CC(C)(C)O)nc(OCCNC)cc21.Cl" stands at 95

----------
# System: INSRR
# TEST CONTEXT: Compound Concentration (nM):1000
READOUT KIND: Percent Control (%)
Give bare numbers, in %.

Recorded results for 3 molecules are shown here.
molecule=COc1cc(C)c(N(C)C(=O)CN(C)C)cc1Nc1nc(Nc2cccc(F)c2C(N)=O)c2cc[nH]c2n1 numeric_value=2.9
molecule="Cl.O=C(O[C@H]1CN[C@H](C#Cc2cc3ncnc(Nc4ccc5c(cnn5Cc5ccccc5)c4)c3s2)C1)N1CCOCC1 [GSK200398A]" numeric_value=100
molecule=O=C(Nc1n[nH]c2nc(-c3ccc(O)cc3)c(Br)cc12)C1CC1 numeric_value=100

For reference, reported Percent Control for NS(=O)(=O)c1ccc(N/N=C2\C(=O)Nc3ccc(C(=O)NCc4ccncc4)cc32)cc1 [GW300657X] stands at 89

----------
# Test system: SNRK
# TEST CONTEXT: Compound Concentration (nM):1000
READOUT KIND: Percent Control (%)
Numbers only, in %.

Recorded results for 2 compounds are shown here.
compound=CCc1ccc(Oc2nccc(-c3c(-c4ccc(F)cc4)ncn3C3CCNCC3)n2)cc1 numeric_value=99
compound="COc1ccc2c(-c3ccnc(Nc4cccc(OC(F)(F)F)c4)n3)cnn2n1 [GW810372X]" numeric_value=98

For every item in the list below, what is its measured Percent Control?
1. NS(=O)(=O)c1ccc(N/N=C2\C(=O)Nc3ccc(C(=O)NCc4ccncc4)cc32)cc1 [GW300657X]
2. CCS(=O)(=O)c1ccc(OC)c(Nc2ncc(-c3cccc(F)c3)o2)c1 [GW621970X]
3. COc1cc(C)c(N(C)C(=O)CN(C)C)cc1Nc1nc(Nc2cccc(F)c2C(N)=O)c2cc[nH]c2n1
4. Nc1ncnc2occ(-c3ccc(NC(=O)Nc4cc(C(F)(F)F)ccc4F)cc3)c12 [GW770249X]
5. NS(=O)(=O)c1ccc(N/N=C2\C(=O)Nc3ccc(-c4cnco4)cc32)cc1
6. NS(=O)(=O)c1ccc(N/N=C2\C(=O)Nc3ccc(Cl)cc32)cc1 [GW280670X]

Ans:
1. 100
2. 100
3. 76
4. 100
5. 55
6. 100
